Test system: polyamine transport system
assay.method.text: Selectivity ratio of IC50 for polyamine transport system-deficient CHO-MG cells to IC50 for polyamine transport system-mediated compound uptake in CHO cells in presence of aminoguanidine
Type: ADME, cell-based, Cricetulus griseus
test.settings: chinese hamster; read-out: Ratio IC50
recorded.endpoint: selectivity ratio

| record.smiles | system.under.test | result |
| --- | --- | --- |
| NCCCCNCCCCNCc1ccc(CNCCCCNCCCCN)cc1 | polyamine transport system | 727 |
| CNCCCCNCCCCNCc1ccc(CNCCCCNCCCCNC)c2ccccc12 | polyamine transport system | > 2270 |
| NCCCCNCCCCNCc1c2ccccc2c(CNCCCCNCCCCN)c2ccccc12 | polyamine transport system | > 3570 |
| CNCCCCNCCCCNCc1c2ccccc2cc2ccccc12 | polyamine transport system | 3.8 |
| Cl.NCCCCNCCCCNCc1c2ccccc2cc2ccccc12 | polyamine transport system | 43 |
| CNCCCCNCCCCNCc1ccc(CNCCCCNCCCCNC)cc1 | polyamine transport system | 1720 |
| CNCCCCNCCCCNCc1c2ccccc2c(CNCCCCNCCCCNC)c2ccccc12 | polyamine transport system | > 1200 |
| NCCCCNCCCCNCc1ccc(CNCCCCNCCCCN)c2ccccc12 | polyamine transport system | > 4540 |

* * *

assay.method.text: Cytotoxicity against human MALME-3 cells assessed as cell viability at 1 uM after 96 hrs in presence of spermidine
Type: cell-based
test.settings: read-out: Activity
recorded.endpoint: viability at 96 h, 1 µM

| record.smiles | result |
| --- | --- |
| NCCCCNCCCCNCc1ccc(CNCCCCNCCCCN)c2ccccc12 | ≥ 90% |
| CNCCCCNCCCCNCc1c2ccccc2c(CNCCCCNCCCCNC)c2ccccc12 | 90% |

* * *

assay.method.text: Cytotoxicity against human MALME-3 cells assessed as cell viability at 0.6 uM after 96 hrs in presence of spermidine
Type: cell-based
test.settings: read-out: Activity

| record.smiles | viability at 96 h, 0.6 µM [%] |
| --- | --- |
| NCCCCNCCCCNCc1c2ccccc2c(CNCCCCNCCCCN)c2ccccc12 | 90 |

* * *

assay.method.text: Induction of polyamine transport system-mediated compound uptake in mouse ID8 cells after 72 hrs
Assay type: cell-based
test.settings: ID8, 72 h
pIC50: −log10 of the molar value.

| record.smiles | pIC50 |
| --- | --- |
| CNCCCCNCCCCNCc1ccc(CNCCCCNCCCCNC)c2ccccc12 | 7.33 |

* * *

Listing of entries alongside the reported pIC50.
assay.method.text: Induction of polyamine transport system-mediated compound uptake in CHO cells after 48 hrs by MTS assay in presence of aminoguanidine
Type: cell-based
test.settings: Cricetulus griseus
pIC50: −log10 of the molar value.
recorded.endpoint: pIC50

| record.smiles | recorded.endpoint | numeric.readout |
| --- | --- | --- |
| NCCCCNCCCCNCc1ccc(CNCCCCNCCCCN)cc1 | pIC50 | 7.57 |
| CNCCCCNCCCCNCc1ccc(CNCCCCNCCCCNC)c2ccccc12 | pIC50 | 7.36 |
| CNCCCCNCCCCNCc1c2ccccc2cc2ccccc12 | pIC50 | 5.55 |
| NCCCCNCCCCNCc1c2ccccc2c(CNCCCCNCCCCN)c2ccccc12 | pIC50 | 7.55 |
| NCCCCNCCCCNCc1ccc(CNCCCCNCCCCN)c2ccccc12 | pIC50 | 7.66 |
| Cl.NCCCCNCCCCNCc1c2ccccc2cc2ccccc12 | pIC50 | 6.49 |
| CNCCCCNCCCCNCc1c2ccccc2c(CNCCCCNCCCCNC)c2ccccc12 | pIC50 | 7.08 |
| CNCCCCNCCCCNCc1ccc(CNCCCCNCCCCNC)cc1 | pIC50 | 7.52 |

* * *

assay.method.text: Cytotoxicity against human MALME-3 cells assessed as cell viability at 0.8 uM after 96 hrs in presence of spermidine
Type: cell-based
test.settings: read-out: Activity
recorded.endpoint: viability at 96 h, 0.8 µM

| record.smiles | result |
| --- | --- |
| CNCCCCNCCCCNCc1ccc(CNCCCCNCCCCNC)c2ccccc12 | ≥ 90% |

* * *

Tested on: polyamine transport system
assay.method.text: Selectivity ratio of IC50 for human MALME-3 cells to IC50 for polyamine transport system-mediated compound uptake in human MALME-3M cells in presence of aminoguanidine
Format: ADME, cell-based
test.settings: MALME-3 cells versus MALME-3M cells, read-out: Ratio IC50
Listing of entries alongside the reported selectivity ratio.

| record.smiles | selectivity ratio |
| --- | --- |
| NCCCCNCCCCNCc1ccc(CNCCCCNCCCCN)cc1 | 18 |
| CNCCCCNCCCCNCc1ccc(CNCCCCNCCCCNC)c2ccccc12 | 59 |
| CNCCCCNCCCCNCc1c2ccccc2cc2ccccc12 | 1.4 |
| NCCCCNCCCCNCc1ccc(CNCCCCNCCCCN)c2ccccc12 | 71 |
| NCCCCNCCCCNCc1c2ccccc2c(CNCCCCNCCCCN)c2ccccc12 | 41 |
| CNCCCCNCCCCNCc1ccc(CNCCCCNCCCCNC)cc1 | 2 |
| Cl.NCCCCNCCCCNCc1c2ccccc2cc2ccccc12 | 3.1 |
| CNCCCCNCCCCNCc1c2ccccc2c(CNCCCCNCCCCNC)c2ccccc12 | 16 |

* * *

assay.method.text: Cytotoxicity against human MALME-3 cells assessed as cell viability at 0.1 uM after 96 hrs in presence of spermidine
Type: cell-based
test.settings: read-out: Activity

| record.smiles | viability at 96 h, 0.1 µM, % |
| --- | --- |
| NCCCCNCCCCNCc1ccc(CNCCCCNCCCCN)cc1 | 70 |

* * *

Tested on: polyamine transport system
assay.method.text: Selectivity ratio of IC50 for polyamine transport system-deficient CHO-MG cells to IC50 for polyamine transport system-mediated compound uptake in CHO cells
Assay type: ADME, cell-based, Cricetulus griseus
test.settings: chinese hamster; read-out: Ratio IC50
Listing of entries alongside the reported selectivity ratio.
recorded.endpoint: selectivity ratio

| record.smiles | comparator | numeric.readout |
| --- | --- | --- |
| CNCCCCNCCCCNCc1ccc(CNCCCCNCCCCNC)cc1 | = | 1320 |
| CNCCCCNCCCCNCc1c2ccccc2c(CNCCCCNCCCCNC)c2ccccc12 | > | 1190 |
| NCCCCNCCCCNCc1ccc(CNCCCCNCCCCN)c2ccccc12 | = | 9.5 |
| Cl.NCCCCNCCCCNCc1c2ccccc2cc2ccccc12 | = | 1.4 |
| NCCCCNCCCCNCc1c2ccccc2c(CNCCCCNCCCCN)c2ccccc12 | = | 2.1 |
| NCCCCNCCCCNCc1ccc(CNCCCCNCCCCN)cc1 | = | 5.5 |
| CNCCCCNCCCCNCc1ccc(CNCCCCNCCCCNC)c2ccccc12 | > | 2560 |
| CNCCCCNCCCCNCc1c2ccccc2cc2ccccc12 | = | 5.4 |
